// viability at 48 h, 100 µM lookup, one value per entry
Assay: in vitro
Assay type: cell-based
Details: human, neonatal fibroblasts (HDFn cells)
Where no end group is shown, it is not given here.
Number first, unit second.

// worked examples, viability at 48 h, 100 µM included
{"SUBSTANCE": "GLLKKLLKKLLKKL-NH2 [GL, G(LLKK)3 L-NH2]", "viability at 48 h, 100 µM": "65%"}
{"SUBSTANCE": "GKIKKIIKKIIKII-NH2 [GKI, GKI(KKII)2 KII-NH2]", "viability at 48 h, 100 µM": "60%"}
{"SUBSTANCE": "GIKKKIIKKIIKII-NH2 [GIK, GIK(KKII)2 KII-NH2]", "viability at 48 h, 100 µM": "78%"}

We next turn to a different substance, shown below.
Summary for this substance, GIIKKIIKKIIKKIIKKI-NH2 [Helix G4, G(IIKK)4 I-NH2] : viability at 48 h, 100 µM is 65%
